System: RIVA
Test method notes: growth inhibition by drug plus 177Lu-lilotomab satetraxetan (1 - RLU/untreated control) (fraction); higher = stronger inhibition
Condition notes: 10 nM; time (day): 3; 177Lu-lilotomab satetraxetan 0.5 ug/ml
Structures can show the parent of a compound that is named as a salt.
Property: growth inhibition by drug plus 177Lu-lilotomab satetraxetan
Form field (numeric): enter value without unit.

Query :: Please report the recorded growth inhibition by drug plus 177Lu-lilotomab satetraxetan for CN(C)C/C=C/C(=O)Nc1cc2c(Nc3ccc(F)c(Cl)c3)ncnc2cc1O[C@H]1CCOC1 .
Result :: 0.437

Query :: Please report the recorded growth inhibition by drug plus 177Lu-lilotomab satetraxetan for N#CC[C@H](C1CCCC1)n1cc(-c2ncnc3[nH]ccc23)cn1 .
Result :: 0.32

Query :: Please report the recorded growth inhibition by drug plus 177Lu-lilotomab satetraxetan for COc1ccc(C2CC(c3ccccc3)=NN2c2ccc(S(N)(=O)=O)cc2)cc1 (centres undefined) .
Result :: 0.344

Query :: Please report the recorded growth inhibition by drug plus 177Lu-lilotomab satetraxetan for O=C1[C@H](CC[C@H](O)c2ccc(F)cc2)[C@@H](c2ccc(O)cc2)N1c1ccc(F)cc1 [Ezetimibe (Zetia)] .
Result :: 0.537

Query :: Please report the recorded growth inhibition by drug plus 177Lu-lilotomab satetraxetan for CCOc1cc2ncc(C#N)c(Nc3ccc(OCc4ccccn4)c(Cl)c3)c2cc1NC(=O)/C=C/CN(C)C .
Result :: 0.358

Query :: Please report the recorded growth inhibition by drug plus 177Lu-lilotomab satetraxetan for COc1cc2nc(N3CCCN(C)CC3)nc(NC3CCN(Cc4ccccc4)CC3)c2cc1OC .
Result :: 0.498

Query :: Please report the recorded growth inhibition by drug plus 177Lu-lilotomab satetraxetan for O=C(O)CCc1ccc(NCc2cccc(Oc3ccccc3)c2)cc1 .
Result :: 0.476

Query :: Please report the recorded growth inhibition by drug plus 177Lu-lilotomab satetraxetan for CCNC(=O)c1noc(-c2cc(C(C)C)c(O)cc2O)c1-c1ccc(CN2CCOCC2)cc1 .
Result :: 0.398

Query :: Please report the recorded growth inhibition by drug plus 177Lu-lilotomab satetraxetan for CN(C)CCOc1ccc(/C(=C(/CCCl)c2ccccc2)c2ccccc2)cc1 [Toremifene Citrate (Fareston, Acapodene)] .
Result :: 0.724
